measurement target: T1, Human CD3eg linker (human)
T1 construct: Single-chain construct; also called recombinant human CD3
T1 chain: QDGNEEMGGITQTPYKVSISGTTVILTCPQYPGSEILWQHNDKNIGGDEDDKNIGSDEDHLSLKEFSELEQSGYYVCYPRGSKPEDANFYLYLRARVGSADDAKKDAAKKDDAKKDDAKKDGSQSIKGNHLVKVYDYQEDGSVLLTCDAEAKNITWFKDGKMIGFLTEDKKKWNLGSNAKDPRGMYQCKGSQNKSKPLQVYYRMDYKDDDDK
protocol text: SPR; fold vs parent H183/L072
Please go through the items and note down their fold change of affinity.
Give the number; fold is assumed, so skip it.

Exercise: For the binder H183/L072 VL F55L (antibody, name in Kabat numbering, V domains shown) VH: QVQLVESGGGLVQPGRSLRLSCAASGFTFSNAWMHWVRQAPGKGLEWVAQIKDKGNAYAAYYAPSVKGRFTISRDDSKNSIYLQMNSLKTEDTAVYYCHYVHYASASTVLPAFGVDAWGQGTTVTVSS VL: DIVMTQSPLSLPVTPGEPASISCQASQELVHMNRNTYLHWYQQKPGQAPRLLIYKVSNRLPGVPDRFSGSGSGTDFTLKISRVEAEDVGVYYCAQGTSVPFTFGQGTKLEIK , report fold change of affinity.
Solution: 2.9

Exercise: For the binder H183/L072 VL T92K (antibody, name in Kabat numbering, V domains shown) VH: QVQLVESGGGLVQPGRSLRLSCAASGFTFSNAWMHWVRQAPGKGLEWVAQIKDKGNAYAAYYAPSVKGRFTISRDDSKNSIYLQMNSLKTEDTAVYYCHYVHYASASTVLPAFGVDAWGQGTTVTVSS VL: DIVMTQSPLSLPVTPGEPASISCQASQELVHMNRNTYLHWYQQKPGQAPRLLIYKVSNRFPGVPDRFSGSGSGTDFTLKISRVEAEDVGVYYCAQGKSVPFTFGQGTKLEIK , report fold change of affinity.
Solution: 0.8

Exercise: For the binder H183/L072 VL H27dS (antibody, name in Kabat numbering, V domains shown) VH: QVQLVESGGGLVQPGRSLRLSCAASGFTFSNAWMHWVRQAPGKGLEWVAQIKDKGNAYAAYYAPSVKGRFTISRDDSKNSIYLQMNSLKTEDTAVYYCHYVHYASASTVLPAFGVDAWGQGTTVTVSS VL: DIVMTQSPLSLPVTPGEPASISCQASQELVSMNRNTYLHWYQQKPGQAPRLLIYKVSNRFPGVPDRFSGSGSGTDFTLKISRVEAEDVGVYYCAQGTSVPFTFGQGTKLEIK , report fold change of affinity.
Solution: 0

Exercise: For the binder H183/L072 VL A89F (antibody, name in Kabat numbering, V domains shown) VH: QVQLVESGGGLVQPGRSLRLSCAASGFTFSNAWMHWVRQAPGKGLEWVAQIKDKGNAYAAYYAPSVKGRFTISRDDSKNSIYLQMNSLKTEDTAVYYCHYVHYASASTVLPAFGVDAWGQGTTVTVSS VL: DIVMTQSPLSLPVTPGEPASISCQASQELVHMNRNTYLHWYQQKPGQAPRLLIYKVSNRFPGVPDRFSGSGSGTDFTLKISRVEAEDVGVYYCFQGTSVPFTFGQGTKLEIK , report fold change of affinity.
Solution: 0.2

Exercise: For the binder H183/L072 VL H34E (antibody, name in Kabat numbering, V domains shown) VH: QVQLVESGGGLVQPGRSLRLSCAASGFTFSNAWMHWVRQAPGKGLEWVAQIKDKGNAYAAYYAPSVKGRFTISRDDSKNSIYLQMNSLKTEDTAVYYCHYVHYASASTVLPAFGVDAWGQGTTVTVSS VL: DIVMTQSPLSLPVTPGEPASISCQASQELVHMNRNTYLEWYQQKPGQAPRLLIYKVSNRFPGVPDRFSGSGSGTDFTLKISRVEAEDVGVYYCAQGTSVPFTFGQGTKLEIK , report fold change of affinity.
Solution: 0
